TESTED ON: 11β-HSD1 (Homo sapiens)
Construct: detecting cortisol generated from cortisterone by human liver microsomes; from tissue; host or cells: human liver microsomes
Sequence (P28845 whole entry): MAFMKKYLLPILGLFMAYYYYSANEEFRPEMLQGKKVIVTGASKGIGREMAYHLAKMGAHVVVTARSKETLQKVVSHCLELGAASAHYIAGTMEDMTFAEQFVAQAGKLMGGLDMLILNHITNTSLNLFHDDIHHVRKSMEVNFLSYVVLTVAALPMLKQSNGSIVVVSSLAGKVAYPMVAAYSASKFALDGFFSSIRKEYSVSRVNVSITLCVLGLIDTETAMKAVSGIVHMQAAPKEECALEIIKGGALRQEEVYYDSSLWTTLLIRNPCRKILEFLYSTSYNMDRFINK
ASSAY METHOD TEXT: In vitro inhibition of 11β-HSD1, HTRF detection of cortisol generated from cortisone by human liver microsomes
Format: biochemical
CONDITION DETAILS: 11β-HSD IC50 (nM), 1 hour at 37° C., pH 6.0, NADPH 200 μM, cortisone 80 nM, inhibition relative to carbenoxolone signal
MEASURED PROPERTY: IC50
Reply with a number, then the unit it belongs to.

| COMPOUND | TESTED ON | IC50 |
| --- | --- | --- |
| COc1cc2c(cc1C)[C@]1(C)CCN(C(=O)c3ccc4nc[nH]c4c3)[C@H](C2)C1(C)C (stereo in doubt) | 11β-HSD1 (Homo sapiens) | 216 nM |
| CC1(C)[C@H]2Cc3ccccc3[C@]1(C)CCN2C(=O)c1ccc2c(c1)C(O)CC2 (some centres unmarked) | 11β-HSD1 (Homo sapiens) | 183 nM |
| CC(=O)N1CCC(c2nc3cc4c(cc3[nH]2)[C@]2(C)CCN(C(=O)c3ccc5nc[nH]c5c3)[C@H](C4)C2(C)C)CC1 | 11β-HSD1 (Homo sapiens) | 63 nM |
| CC1(C)[C@H]2Cc3c(O)cccc3[C@]1(C)CCN2C(=O)c1cccnc1 | 11β-HSD1 (Homo sapiens) | 1470 nM |

Turning to the following compound.
Q. For `CC(C)(O)c1ccc2c(c1)[C@]1(C)CCN(C(=O)c3ccc4nc[nH]c4c3)[C@H](C2)C1(C)C` , write its IC50.
A. 68 nM
